// values below are reported shrunken log2 fold change
- Test system: Escherichia coli TOP10;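 further: peptides expressed intracellularly from a pBAD plasmid library in pooled LB shake-flask culture, induced with 0.3% L-arabinose, DNA abundance read by NGS, three biological replicates, DESeq2 with apeglm shrinkage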
- TEST DESCRIPTION: shrunken log2 fold change of peptide-encoding DNA abundance (4.5 h post-induction vs induction); higher = less antimicrobial activity (less host growth inhibition)
- COND: time post-induction: 4.5 h; library: site-saturation at positions 5, 18, 19, 20
// return a plain number; no unit text

Here's what some known entries look like.
PRIMARY SEQUENCE	TARGET OF ASSAY	shrunken log2 fold change
RRIRYRPPRLPRPRPRPQRKPRP	Escherichia coli TOP10	-0.263
RRIRERPPRLPRPRPRPSPQPRP	Escherichia coli TOP10	-0.0688
RRIRTRPPRLPRPRPRPTIMPRP	Escherichia coli TOP10	-0.597
RRIRQRPPRLPRPRPRPTARPRP	Escherichia coli TOP10	0.219
RRIRKRPPRLPRPRPRPKMKPRP	Escherichia coli TOP10	0.444

State recorded shrunken log2 fold change with Escherichia coli TOP10, entry RRIRPRPPRLPRPRPRPPILPRP , no comment.
-0.000706

State recorded shrunken log2 fold change with Escherichia coli TOP10, entry RRIRDRPPRLPRPRPRPCNTPRP , no comment.
-0.224

State recorded shrunken log2 fold change with Escherichia coli TOP10, entry RRIRVRPPRLPRPRPRPYVTPRP , no comment.
0.0974

State recorded shrunken log2 fold change with Escherichia coli TOP10, entry RRIRKRPPRLPRPRPRPMVSPRP , no comment.
0.0111

State recorded shrunken log2 fold change with Escherichia coli TOP10, entry RRIRHRPPRLPRPRPRPGGWPRP , no comment.
1.47

State recorded shrunken log2 fold change with Escherichia coli TOP10, entry RRIRMRPPRLPRPRPRPPAQPRP , no comment.
1.08

State recorded shrunken log2 fold change with Escherichia coli TOP10, entry RRIRYRPPRLPRPRPRPNYSPRP , no comment.
-1.39

State recorded shrunken log2 fold change with Escherichia coli TOP10, entry RRIRRRPPRLPRPRPRPRNGPRP , no comment.
0.144

Data origin: the supplement of paper PMC9112550
